// merged dataset of pKi values, system = human PDE10A2 (Homo sapiens (Human), UniProt Q9Y233), multiple refs
Answers are plain numbers, as −log10 of the molar value.

Some compounds with known pKi results, for comparison:
>  <structure.string>
COn1cc(-c2cnc(C)nc2OC[C@H]2C[C@@H]2c2ccc(C)cn2)ccc1=O

>  <pKi>
8.63

$$$$
>  <structure.string>
Cc1ccc([C@H]2C[C@@H]2COc2nc(C)ncc2-c2ccnc(F)c2)nc1

>  <pKi>
9.26

$$$$
>  <structure.string>
Cc1ccc([C@H]2C[C@@H]2COc2nc(C)ncc2-c2cn(C)c(=O)cn2)nc1

>  <pKi>
7.89

$$$$
>  <structure.string>
Cc1nc(C)n(-c2cc(N3CC(c4nc5ccccc5n4C)C3)nc(OCc3ccnn3C)n2)n1

>  <pKi>
9.89

$$$$
>  <structure.string>
COc1ccc([C@H]2C[C@@H]2COc2nc(C)ncc2C2=CC(=O)CC2)nc1

>  <pKi>
9.32

$$$$

// each compound listed below needs its pKi
1. Cc1nc(C)n(-c2cc([C@@H]3C[C@H]3c3nc4ccccc4n3C)nc(N3CC(F)(F)C3)n2)n1
2. COc1ccc([C@H]2C[C@@H]2COc2nc(C)ncc2-c2ccnc(F)c2)nc1
3. COc1ccc(-n2c(CCc3cn(C(=O)OC(C)(C)C)c4ccccc34)nc3ccccc3c2=O)cc1
4. COc1ccc(-n2c(CCNC(=O)Nc3ccccc3-c3ccccc3)nc3ccccc3c2=O)cc1
5. Cc1ccc2nc(C3CN(c4cc(-n5nc(C)nc5C)nc(C)n4)C3)[nH]c2c1
6. CC(C)Oc1cccc2c1C(=O)N(CCc1nc3ccccc3c(=O)n1C1CCCCC1)C2=O
7. CC(C)Oc1cccc2c1C(=O)N(CCc1nc3ccccc3c(=O)n1-c1ccc(OCc3ccccc3)cc1)C2=O

Reply:
1: 9.12; 2: 9.48; 3: 7.41; 4: 7.32; 5: 7.41; 6: 7.96; 7: 9.08

// each compound listed below needs its pKi
1. Cc1ccc([C@H]2C[C@@H]2COc2nc(C)ncc2-c2ccc(=O)n(C(C)C)c2C)nc1
2. COc1ccc([C@H]2C[C@@H]2COc2nc(C)ncc2-c2cc(=O)n(C)n2C)nc1
3. COc1ccc([C@H]2C[C@@H]2COc2nc(C)ncc2-c2cn(C)nc2C(F)(F)F)nc1
4. Cc1nc(C)c(CNc2cc(C(=O)NC[C@H]3C[C@@H]3c3ccc4ccccc4n3)nc3ccnn23)s1

Reply:
[8.37, 8.11, 9.70, 9.74]

compound Cc1nc([C@@H]2C[C@H]2c2nc3ccc(F)cc3[nH]2)cc(-n2nc(C)nc2C)n1 , pKi observed: 8.04

* * *

// merged dataset of pKi values, system = human PDE10A2 (Homo sapiens (Human)), multiple refs
Give bare numbers, as −log10 of the molar value.

Some molecules with known pKi results, for comparison:
>  <molecule>
Cc1ccc([C@H]2C[C@@H]2COc2nc(C)ncc2-c2ccccc2C(F)(F)F)nc1

>  <experimental.value>
8.51

$$$$
>  <molecule>
COCCOc1nc(-c2ccc(Cl)nc2)nc2c1CN(C(=O)c1cnn3ccccc13)CC2

>  <experimental.value>
9.03

$$$$
>  <molecule>
Cc1ncc(-c2cc(=O)[nH]cc2C)c(OC[C@H]2C[C@@H]2c2ccc3ccccc3n2)n1

>  <experimental.value>
10.96

$$$$
>  <molecule>
COCCn1c(C)c(-c2cnc(C)nc2OC[C@H]2C[C@@H]2c2ccc(OC)cn2)ccc1=O

>  <experimental.value>
8.84

$$$$
>  <molecule>
COC(=O)Cn1cc(-c2cnc(C)nc2OC[C@H]2C[C@@H]2c2ccc(OC)cn2)ccc1=O

>  <experimental.value>
8.44

$$$$
>  <molecule>
CCn1cc(-c2cnc(C)nc2OC[C@H]2C[C@@H]2c2ccc(OC)cn2)ccc1=O

>  <experimental.value>
8.97

$$$$
>  <molecule>
COc1ccc([C@H]2C[C@@H]2COc2nc(C)ncc2-c2ccc(=O)[nH]n2)nc1

>  <experimental.value>
8.35

$$$$
>  <molecule>
Cc1nc([C@H]2C[C@@H]2c2nc3ccccc3n2C)cc(-n2nc(C)nc2CN(C)C)n1 (stereo in doubt)

>  <experimental.value>
7.97

$$$$

// each molecule listed below needs its pKi
1. CCn1nnc(-c2cnc(C)nc2OC[C@H]2C[C@@H]2c2ccc(OC)cn2)n1
2. COc1ccc([C@H]2C[C@@H]2COc2nc(C)ncc2-c2ccc(-c3nnn(C)n3)cc2)nc1
3. Cc1nc(-c2ccc(C#N)cn2)cc(N2CC(c3nc4ccccc4n3C)C2)n1
4. Cc1ccc([C@H]2C[C@@H]2COc2nc(C)ncc2-c2nn(C)c(=O)cc2C)nc1

Reply:
1. 7.71
2. 8.69
3. 8.62
4. 8.01

// each molecule listed below needs its pKi
1. Cc1ccc([C@H]2C[C@@H]2COc2nc(C)ncc2-c2ccncc2C(F)(F)F)nc1
2. COc1ccc(Cc2nc(C)nn2-c2cc(CCc3ccc4ccccc4n3)nc(C)n2)cc1OC

Reply:
1: 9.23; 2: 11.40

// each molecule listed below needs its pKi
1. COCCn1ccc(-c2cnc(C)nc2OC[C@H]2C[C@@H]2c2ccc3ccccc3n2)cc1=O
2. Cc1cc(-c2cnc(C)nc2OC[C@H]2C[C@@H]2c2ccc3ccccc3n2)ccn1

Reply:
10.92
11.00

* * *

// merged dataset of Ki values, system = human PDE10A2 (Homo sapiens (Human)), multiple refs
Criterion: Ki strictly under 6 nM. Met: yes (1). Not met: no (0).

Check out these entries, answers already filled in.
>  <molecule>
Cc1nc(-n2nc(C)nc2C)cc(C2(F)CC(c3nc4ccccc4n3C)C2)n1 (centres unmarked)

>  <qualitative.label>
no (0)

$$$$
>  <molecule>
Cc1nc(C2CC2)n(-c2cc(N3CC(c4nc5ccccc5n4C)C3)nc(C(F)(F)F)n2)n1

>  <qualitative.label>
yes (1)

$$$$
>  <molecule>
Cc1nc([C@H]2C[C@@H]2c2cn3ccccc3n2)cc(-n2nc(C)nc2C)n1 (stereo in doubt)

>  <qualitative.label>
yes (1)

$$$$
>  <molecule>
Cc1nc(NCc2sc(C)nc2C)c(C)c(OC[C@H]2C[C@@H]2c2ccccn2)n1

>  <qualitative.label>
no (0)

$$$$
>  <molecule>
Cc1nc(N2CC(c3nc4ccccc4n3C)C2)cc(-n2ccc(C3CC3)n2)n1

>  <qualitative.label>
yes (1)

$$$$
>  <molecule>
Cc1ncc(-c2ccc(C(C)(C)O)nc2C)c(OC[C@H]2C[C@@H]2c2ccccn2)n1

>  <qualitative.label>
yes (1)

$$$$

Task item: Does this molecule meet the criterion Ki < 6 nM? COc1ccc(Cc2nc(C)nn2-c2cc(/C=C/c3ccc4ccccc4n3)nc(C)n2)cc1OC
Reply: yes (1)

Task item: Does this molecule meet the criterion Ki < 6 nM? Cc1nc([C@@H]2C[C@H]2c2nc3ccccn3c2C#N)cc(-n2nc(C)nc2C)n1 (relative stereo)
Reply: no (0)

* * *

// merged dataset of Ki values, system = human PDE10A2 (Homo sapiens (Human), UniProt Q9Y233), multiple refs
Answers are plain numbers, in nM.

>  <compound>
COCCOc1nc(-c2ccc(Cl)nc2)nc2c1CN(C(=O)Oc1ccccc1)CC2

>  <experimental.value>
16.8

$$$$
>  <compound>
Cc1cnn(-c2cc(N3CC(c4nc5ccccc5n4C)C3)nc(C(F)(F)F)n2)c1

>  <experimental.value>
1.2

$$$$
>  <compound>
Cc1ccc([C@H]2C[C@@H]2COc2nc(C)ncc2-c2ccc(=O)n(-c3ccccc3)c2)nc1

>  <experimental.value>
4.86

$$$$
>  <compound>
COc1ccc(Cc2nc(C)nn2-c2cc(C3CC3c3nc4ccccc4n3C)nc(C)n2)cc1OC (centres unmarked)

>  <experimental.value>
0.003

$$$$
>  <compound>
Cc1nc(N2CC(c3nc4ccccc4n3C)C2)cc(-n2cc(C)c(C)n2)n1

>  <experimental.value>
0.63

$$$$

// each compound listed below needs its Ki
1. COCCOc1nc(-c2ccc(C)nc2)nc2c1CN(C(=O)c1cnn3ccccc13)CC2
2. Cc1nc(N2CC(c3nc4ccccc4n3C)C2)cc(-n2nc(C)nc2C[C@H](C)O)n1
3. COc1ccc(-n2c(CCCN3C(=O)c4ccccc4C3=O)nc3ccccc3c2=O)cc1

Reply:
1. 12.5
2. 2
3. 219

* * *

// merged dataset of log10 of Ki values, system = UniProt Q9Y233, multiple refs
On a log10 scale: recorded Ki, unit nM.

// each molecule listed below needs its log10 of Ki
1. COc1ccc(-n2c(CCN3C(=O)c4cccc(-c5ccncc5)c4C3=O)nc3ccccc3c2=O)cc1
2. COCCc1nc(C)nn1-c1cc(N2CC(c3nc4ccccc4n3C)C2)nc(C)n1
3. CCc1cccc(NC(=O)N2CCc3nc(-c4cccnc4)nc(OC4CCN(C)CC4)c3C2)c1

Reply:
[-1.14, 0.28, 1.15]

// each molecule listed below needs its log10 of Ki
1. Cc1ncc(-c2ccc(CO)cc2)c(OC[C@H]2C[C@@H]2c2ccc3ccccc3n2)n1 (single isomer, unassigned)
2. COc1cc(NC(=O)N2CCc3nc(-c4ccc(Cl)nc4)nc(O[C@@H]4CCOC4)c3C2)ccn1
3. Cc1nc(N2CC(c3nc4ccccc4n3C)C2)cc(-n2cccn2)n1
4. Cc1nc(N2CC(c3nc4ccccc4n3C)C2)cc(-n2nc(C)nc2C)n1
5. CCc1ccc([C@@H]2C[C@@H]2COc2nc(C)ncc2C2CCC(=O)CC2)nc1

Reply:
1: -1.52; 2: -0.08; 3: 0.40; 4: 0.32; 5: 0.54
